# testedTarget: MERS-CoV RBD (MERS-CoV, UniProt K9N5Q8 367-606)
# conditionInfo: protein: commercial; label: 3'-biotin-TEG (SPR)
propertyLabel: pKd
The read-out pKd is expressed as -log10 of concentration in moles per litre.

[in] Recorded pKd of GGGTGAATCTATGGGGTGGGCAGGGG (XNA) [SPA1-M13] , please.
[out] 8.40
